Assay: Cyclic voltammetry in water pH 7.0
Type: physicochemical
Conditions: pH 7.0 phosphate buffer, 0.1 M KCl, 25 °C
Listing of recorded Ep in water (peak potential), mean ± SE by entry.
Answer with the value and then the unit.

Would you please look over these solved cases?
Cc1ccccc1/C=C/c1ncc([N+](=O)[O-])n1C :: −0.621 ± 0.001 V vs SCE
Cn1c([N+](=O)[O-])cnc1/C=C/c1ccsc1 :: −0.595 ± 0.001 V vs SCE
Cn1c([N+](=O)[O-])cnc1/C=C/c1cccc(F)c1 :: −0.613 ± 0.008 V vs SCE
Cn1c([N+](=O)[O-])cnc1/C=C/c1ccccc1 :: −0.634 ± 0.004 V vs SCE
Cn1c([N+](=O)[O-])cnc1/C=C/c1cccs1 :: −0.658 ± 0.001 V vs SCE

Ep in water (peak potential), mean ± SE recorded for this compound, `COc1cccc(/C=C/c2ncc([N+](=O)[O-])n2C)c1` , is −0.763 ± 0.001 V vs SCE

Attribution: paper PMC2766634
